# Tested on: DLD1
# testName: TCF/Wnt firefly luciferase reporter signal relative to plate median (fraction of plate median); higher = higher Wnt reporter signal
# measurementSetup: 5 µM; treatment time 24 h; reporter: 7TFP
property: TCF/Wnt firefly luciferase reporter signal
Lab note: jot the number down without any unit.

# annotated cases, reported TCF/Wnt firefly luciferase reporter signal shown
CC(C)=CC1C(CO)C1(C)C (stereo not given) = 0.984
CC(C)[C@@H]1CC[C@@H](C)CC1=O = 0.906
CN(Cc1cnc2nc(N)nc(N)c2n1)c1ccc(C(=O)N[C@@H](CCC(=O)O)C(=O)O)cc1 = 0.739
CC[C@H](C)C(=O)O[C@H]1C[C@@H](C)C=C2C=C[C@H](C)[C@H](CC[C@@H]3C[C@@H](O)CC(=O)O3)[C@H]21 [Mevinolin, Lovastatin] = 0.836
COC(=O)/C=C/c1ccc(O)c(O)c1 [Caffeic acid methylester] = 1.02
O=c1[nH]c(=O)n([C@H]2C[C@H](O)[C@@H](CO)O2)cc1F = 0.688

Now look at this one.
So for CC=CC1=C(C(=O)O)N2C(=O)[C@@H](NC(=O)[C@H](N)c3ccc(O)cc3)[C@H]2SC1 , the logged TCF/Wnt firefly luciferase reporter signal turned out to be 1.09

----------
# Tested on: HCT116
# testName: cell viability (CellTiter-Glo) relative to plate median (fraction of plate median); higher = more viable cells
# measurementSetup: 5 µM; treatment time 24 h; reporter: TCF4/Wnt
# key: entry, value: cell viability

The examples below pair each entry with its known result.
O=c1[nH]c(=O)n([C@H]2C[C@H](O)[C@@H](CO)O2)cc1F = 1.05
COc1ccccc1OCC(O)COC(N)=O (configuration not stated) = 1.01
Fc1ccc([C@@H]2CCNC[C@H]2COc2ccc3c(c2)OCO3)cc1 = 1.02

# value of cell viability, HCT116, item O=c1cc(-c2ccccc2)oc2cc(O)c(O)cc12 = 0.986

The observed cell viability for CCCCCC[C@H]1CC[C@@](O)([C@@](C)(O)C(=O)N[C@@H]2C(=O)N3NCCC[C@@H]3C(=O)N(O)[C@@H](COC)C(=O)NCC(=O)N3NCCC[C@H]3C(=O)N(O)[C@H](C)C(=O)O[C@H]2C)OC1C (some centres not stated) when tested with HCT116 stands at 1.23

----------
Each entry below lists one item and its recorded cell viability value.
# System: HCT116
# testName: cell viability (CellTiter-Glo) relative to plate median (fraction of plate median); higher = more viable cells
# measurementSetup: 5 µM; treatment time 24 h; reporter: TCF4/Wnt
# output: bare number, no unit

response.value for CCOC(=O)[C@H](CCc1ccccc1)N[C@H]1CCc2ccccc2N(CC(=O)O)C1=O (field: cell viability) = 0.899

// sample NCCCCNCCCN , its cell viability was 1.03

Reported cell viability ( Cn1c(=O)c2nc[nH]c2n(C)c1=O ) = 1.04

Value of measured cell viability for the entry Cc1ccc(Cl)c(Nc2ccccc2C(=O)O)c1Cl : 1.06

The recorded cell viability for entry N[C@H]1Cc2ccc(cc2)C(=O)[C@@H]2C[C@@H](O)CN2C1=O [cyclo(4-hydroxyprolyl-phenylalanyl)] equals 0.907

The recorded cell viability for entry Cc1nnc(NS(=O)(=O)c2ccc(N)cc2)s1 equals 1.04

The value of cell viability measured for the compound CC1=Nc2ccc(Cl)cc2S(=O)(=O)N1 turned out to be 1.06

The value of cell viability measured for the compound C#CCCCCCCCCCCCC(O)CC(O)CO.C=CCCCCCCCCCCCC(O)CC(O)CO (stereo unspecified) turned out to be 0.974

Short answer for Nc1ccc(S(=O)(=O)Nc2cnc3ccccc3n2)cc1 : cell viability was 1.07

So, C/C=C/CCC(=O)c1cc(C)c(O)cc1O ? Its cell viability was 1.06

compound COc1cc(O)c(C(=O)c2ccccc2)cc1O , cell viability observed: 0.84

----------
# Test system: SW480
# testName: cell viability (CellTiter-Glo) relative to plate median (fraction of plate median); higher = more viable cells
# measurementSetup: 5 µM; treatment time 24 h; reporter: 7TFP
Note to self: cell viability under 1 means satisfied, ties and anything higher get not satisfied.

Please review the following examples before continuing.
CC#C[C@]1(O)CC[C@H]2[C@@H]3CCC4=CC(=O)CCC4=C3[C@@H](c3ccc(N(C)C)cc3)C[C@@]21C = satisfied
O=C1C[C@@H](c2ccc(O)cc2)Oc2cc(O)cc(O)c21 = not satisfied
COC(=O)c1c(C)cc(OC)cc1O = satisfied
COc1ccc2c(c1)OC[C@@H](Cc1ccc(OC)c(OC)c1)[C@@H]2O = satisfied
O=c1cc(-c2ccc(O)c(O)c2)oc2cc(O[C@@H]3O[C@H](CO)[C@@H](O)[C@H](O)[C@H]3O)cc(O)c12 [Luteolin-7-O-glucoside (102)] = satisfied

Let us examine a further case.
Could you please tell me whether cell viability recorded for C/C=C/C=C/c1cc2cc3c(c(O)c2c(=O)[nH]1)C1(CC3)C(O)=c2c(=O)c3c(=O)cc(OC)c(=O)c=3c(=O)c2=C1O (stereo not given) is less than 1?
not satisfied

----------
# System: SW480
# testName: TCF/Wnt firefly luciferase reporter signal relative to plate median (fraction of plate median); higher = higher Wnt reporter signal
# measurementSetup: 5 µM; treatment time 24 h; reporter: 7TFP
molecules and their reported TCF/Wnt firefly luciferase reporter signal

These recorded examples may help you get a feel for the data.
COc1ccc(-c2cc(=O)c3c(O)cc(O[C@H]4O[C@H](CO[C@@H]5O[C@@H](C)[C@H](O)[C@@H](O)[C@H]5O)[C@@H](O)[C@H](O)[C@H]4O)cc3o2)cc1 = 0.948
CC(C)[C@H](N)C(=O)OCCOCn1cnc2c(=O)nc(N)[nH]c21 = 0.876
C[N+](C)(C)CC(O)CC(=O)[O-] (centres undefined) = 0.902

Then this molecule:
// TCF/Wnt firefly luciferase reporter signal lookup, molecule = C[C@H]1[C@H](C)CC[C@]2(C(=O)O)CC[C@]3(C)C(=CC[C@@H]4[C@@]5(C)CC[C@H](O)C(C)(C)[C@@H]5CC[C@]43C)[C@H]12 , result: 1.06

----------
# Test system: SW480
# testName: cell viability (CellTiter-Glo) relative to plate median (fraction of plate median); higher = more viable cells
# measurementSetup: 10 µM; treatment time 24 h; reporter: 7TFP
Classify: yes when cell viability is strictly less than 1; no when cell viability is not.

Please review the following examples before continuing.
Cn1c(=O)c(F)c(Nc2ccc(I)cc2F)c2c(=O)n(C[C@@H](O)CO)cnc21 = no
CN1CCN(c2cccc(Nc3nc4c(-c5ccc(S(C)(=O)=O)cc5)cccn4n3)c2)CC1 = no
O=C1NC(=O)/C(=C/c2ccc3c(c2)OC(F)(F)O3)S1 = yes

Say whether its cell viability is strictly beneath 1. Entry: CNC(=O)c1ccc(C)c(-n2c(C)cc(OCc3ccc(F)cc3F)c(Br)c2=O)c1
yes

----------
Overview of reported TCF/Wnt firefly luciferase reporter signal across a group of compounds:
# System: SW480
# testName: TCF/Wnt firefly luciferase reporter signal relative to plate median (fraction of plate median); higher = higher Wnt reporter signal
# measurementSetup: 5 µM; treatment time 24 h; reporter: 7TFP
The response must contain the number and no unit.

c1coc(CNc2ncnc3[nH]cnc23)c1 = 1.04
COc1ccc(-c2oc3c(CC=C(C)C)c(O[C@@H]4O[C@H](CO)[C@@H](O)[C@H](O)[C@H]4O)cc(O)c3c(=O)c2O[C@@H]2O[C@@H](C)[C@H](O)[C@@H](O)[C@H]2O)cc1 = 0.974
CCCCC(CC)CN=C(N)N=C(N)NCCCCCCNC(N)=NC(N)=NCC(CC)CCCC (configuration not stated) = 1.1
CCCCC[C@@H](O)[C@H]1C(=O)O[C@H](C)[C@@H](O)/C=C/C=C/C=C/C=C/C=C(\C)[C@@H](O)C[C@H](O)C[C@H](O)C[C@H](O)C[C@H](O)C[C@H](O)C[C@@H]1O = 1.09
CC1NC(=O)CNC1=O (configuration not stated) = 1

Sample CC(=O)[C@@]1(O)CC[C@H]2[C@@H]3C[C@H](C)C4=CC(=O)C=C[C@]4(C)[C@@]3(F)[C@@H](O)C[C@@]21C ; TCF/Wnt firefly luciferase reporter signal observed: 0.99

Lab note: COC(=O)[C@@]1(C)CCC[C@]2(C)c3ccc(O)c(C(C)C)c3CCC12 (some centres not stated) gave TCF/Wnt firefly luciferase reporter signal of 0.88

// TCF/Wnt firefly luciferase reporter signal lookup, compound = CCCCCCCCCc1ccc(OCCOCCOCCOCCOCCOCCOCCOCCOCCO)cc1 , result: 0.904

For record OC1=Cc2c(O)cc(O)cc2OC1(O)c1ccc(O)c(O)c1 (configuration not stated) the listed TCF/Wnt firefly luciferase reporter signal is 0.98

Kindly note the recorded TCF/Wnt firefly luciferase reporter signal for C=C1C(=O)[C@]23[C@H](CC[C@@H]1[C@@H]2O)[C@]12CO[C@@]3(O)[C@H](O)[C@H]1C(C)(C)CC[C@@H]2O , which is 0.731

TCF/Wnt firefly luciferase reporter signal in this record for C1CCN2C[C@@H]3C[C@H](CN4CCCC[C@@H]34)[C@H]2C1 : 0.979

Notebook: C[C@@H]1C[C@H]2[C@@H]3CCC4=CC(=O)C=C[C@]4(C)[C@@]3(F)[C@@H](O)C[C@]2(C)[C@@]1(O)C(=O)CO , TCF/Wnt firefly luciferase reporter signal read as 1.05

Briefly, TCF/Wnt firefly luciferase reporter signal measured for COc1cc(OC)cc(OC)c1 : 1.1

// TCF/Wnt firefly luciferase reporter signal value for Nc1ncnc2c1ncn2[C@@H]1O[C@H](CO)[C@@H](O)[C@H]1O : 1.15

Entry under test: C=C1CCC(C2CC(=O)OC2=O)C(=O)CCC2C1CC2(C)C (configuration not stated) . Its TCF/Wnt firefly luciferase reporter signal was 0.901

The compound identified as CNC[C@H](O)c1ccc(O)c(O)c1 registered its TCF/Wnt firefly luciferase reporter signal at 1.12

Kindly note the recorded TCF/Wnt firefly luciferase reporter signal for CCC(=O)C(CC)C(O)C(C)CC(C)C1OC(=O)CC2(O)CC=C(C)C(O2)/C(C)=C/CCCC(OC2CC(OC(N)=O)C(O)C(C)O2)/C=C\C(C)C(O)C1C (configuration not stated) , which is 0.974

get_value(item= CCC1=C[C@@H]2CN(C1)Cc1c([nH]c3ccccc13)[C@@](C(=O)OC)(c1cc3c(cc1OC)N(C)[C@H]1[C@@](O)(C(=O)OC)[C@H](OC(C)=O)[C@]4(CC)C=CCN5CC[C@]31[C@@H]54)C2 , readout=TCF/Wnt firefly luciferase reporter signal) returns 0.892

Recorded TCF/Wnt firefly luciferase reporter signal (compound CC1(C)C(=O)C=C[C@]2(C)[C@H]3CC[C@@]4(C)[C@H](c5ccoc5)OC(=O)[C@H]5O[C@]54[C@]3(C)C(=O)C[C@@H]12 ): 0.978

Notebook: CO/C=C/C(=O)c1cc2cnc3c(=N)cc(NC(C)=O)c([nH]1)c23 , TCF/Wnt firefly luciferase reporter signal read as 0.947

Looking up CCOc1ccc2c(c1)C(C)=CC(C)(C)N2 , I see its TCF/Wnt firefly luciferase reporter signal listed as 0.899

TCF/Wnt firefly luciferase reporter signal reading for O=c1cc(-c2ccccc2)oc2cc(O)c(O)c(O)c12 : 1.02

The reported TCF/Wnt firefly luciferase reporter signal of the compound O=C(O)CCCCCCCCCCCC[C@@H]1C=CCC1 was 1

Lookup result for C=CC(C)(O)CCC1C(=C)CC(OC(C)=O)C2C(C)(C)CCCC12C (configuration not stated) ; measured TCF/Wnt firefly luciferase reporter signal: 0.87

Lookup result for O=C1CCc2cc(OCCCCc3nnnn3C3CCCCC3)ccc2N1 ; measured TCF/Wnt firefly luciferase reporter signal: 0.987

The compound listed as CO/N=C1\CN(c2nc3c(cc2F)c(=O)c(C(=O)O)cn3C2CC2)CC1CN (configuration not stated) has a reported TCF/Wnt firefly luciferase reporter signal of 1.06

Field TCF/Wnt firefly luciferase reporter signal (entry CC(C)(O)CC[C@@H](O)[C@](C)(O)[C@H]1CC[C@@]2(O)C3=CC(=O)[C@@H]4C[C@@H](O)[C@@H](O)C[C@]4(C)[C@H]3CC[C@]12C ) reads 1.14

Data point: O=C(O)C1CCCNC1 (configuration not stated) ; TCF/Wnt firefly luciferase reporter signal = 0.938

Lab note: measured TCF/Wnt firefly luciferase reporter signal of C[C@]12CC[C@@H]3c4ccc(OS(=O)(=O)O)cc4CC[C@H]3[C@@H]1CCC2=O was 1.23

Recorded result, COC(=O)/C=C/C(C)=C\C=C\C(C)=C\C=C\C=C(C)\C=C\C=C(C)\C=C\C(=O)O , TCF/Wnt firefly luciferase reporter signal: 0.997
